target: UniProtKB P00747; assay: Inhibition of human plasmin
Sequence (P00747 97-580 limits assumed): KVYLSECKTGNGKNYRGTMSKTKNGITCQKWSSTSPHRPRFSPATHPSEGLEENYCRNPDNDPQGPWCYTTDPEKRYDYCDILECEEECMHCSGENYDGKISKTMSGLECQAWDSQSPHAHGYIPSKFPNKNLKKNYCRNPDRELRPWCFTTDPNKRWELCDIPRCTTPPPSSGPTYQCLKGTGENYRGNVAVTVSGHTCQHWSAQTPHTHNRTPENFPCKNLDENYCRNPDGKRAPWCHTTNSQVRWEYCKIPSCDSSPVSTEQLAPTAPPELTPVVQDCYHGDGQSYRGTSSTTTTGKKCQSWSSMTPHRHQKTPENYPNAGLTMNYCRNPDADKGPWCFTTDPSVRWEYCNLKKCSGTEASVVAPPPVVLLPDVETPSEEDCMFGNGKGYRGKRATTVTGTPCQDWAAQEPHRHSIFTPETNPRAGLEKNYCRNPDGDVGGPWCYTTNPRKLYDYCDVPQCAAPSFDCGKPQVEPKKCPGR
Sequence (P00747 581-810 limits assumed): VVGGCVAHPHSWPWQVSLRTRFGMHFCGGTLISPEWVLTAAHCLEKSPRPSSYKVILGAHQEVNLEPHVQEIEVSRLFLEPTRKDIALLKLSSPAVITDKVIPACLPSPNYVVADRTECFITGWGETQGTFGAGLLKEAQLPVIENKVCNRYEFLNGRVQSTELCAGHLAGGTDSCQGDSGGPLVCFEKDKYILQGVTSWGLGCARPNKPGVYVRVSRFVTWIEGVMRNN
Square brackets hold non-standard residues; d marks the D form. Peptide text beside a SMILES is read from it. * marks the point of attachment. pNA = O=[N+]([O-])c1ccc(N*)cc1
Assay metric: pIC50
Quick note: pIC50 means taking -log10 of the concentration in moles per liter.

stdin: Provide only the value of recorded pIC50 for CC(C)C[C@H](NC(=O)[C@H](N)C(C)C)C(=O)N[C@@H](CCCCN)C(=O)Nc1ccc([N+](=O)[O-])cc1 (H-[dV]-Leu-Lys-pNA)
stdout: 6.28

----------
target: Urokinase-type plasminogen activator (Homo sapiens, UniProt P00749); assay: Inhibition of urokinase (unknown origin) using Pyr-Glu-Gly-Arg-pNA as substrate; parameters: concentration or dose not given beside the values; details: concentration not given here
Classes (inhibition): bin 0: < 10%; bin 1: ≥ 10% and < 20%; bin 2: ≥ 20%

stdin: Lab note: which band did `CCCCCCCCNC(=O)[C@H](Cc1ccc(OCc2ccc(C(F)(F)F)cc2)cc1)NC(=O)[C@H]1CC[C@H](CN)CC1` land in?
stdout: bin 0

stdin: Lab note: which band did `CCCCCCCCNC(=O)[C@H](Cc1ccc(OCc2ccc3ccccc3c2)cc1)NC(=O)[C@H]1CC[C@H](CN)CC1` land in?
stdout: bin 2

stdin: Lab note: which band did `CCCCCCCCNC(=O)[C@H](Cc1ccc(OCc2cccc(OCc3ccncc3)c2)cc1)NC(=O)[C@H]1CC[C@H](CN)CC1` land in?
stdout: bin 2

stdin: Lab note: which band did `CCCCCCCCNC(=O)[C@H](Cc1ccc(OCc2ccccc2C(F)(F)F)cc1)NC(=O)[C@H]1CC[C@H](CN)CC1` land in?
stdout: bin 0

stdin: Lab note: which band did `CCCCCCCCNC(=O)[C@H](Cc1ccc(OCc2cccc(C(F)(F)F)c2)cc1)NC(=O)[C@H]1CC[C@H](CN)CC1` land in?
stdout: bin 1

stdin: Lab note: which band did `CCCCCCCCNC(=O)[C@H](Cc1ccc(OCc2cccc(-c3ccccc3)c2)cc1)NC(=O)[C@H]1CC[C@H](CN)CC1` land in?
stdout: bin 2

stdin: Lab note: which band did `CCCCCCCCNC(=O)[C@H](Cc1ccc(OCc2cccc(C(=O)OCC)c2)cc1)NC(=O)[C@H]1CC[C@H](CN)CC1` land in?
stdout: bin 0

stdin: Lab note: which band did `CCCCCCCCNC(=O)[C@H](Cc1ccc(OCc2ccc(C(=O)OCC)cc2)cc1)NC(=O)[C@H]1CC[C@H](CN)CC1` land in?
stdout: bin 2

stdin: Lab note: which band did `CCCCCCCCNC(=O)[C@H](Cc1ccc(OCc2ccc(C(=O)O)cc2)cc1)NC(=O)[C@H]1CC[C@H](CN)CC1` land in?
stdout: bin 2

stdin: Lab note: which band did `CCCCCCCCNC(=O)[C@H](Cc1ccc(OCc2cccc3cccnc23)cc1)NC(=O)[C@H]1CC[C@H](CN)CC1` land in?
stdout: bin 2

stdin: Lab note: which band did `CCCCCCCCNC(=O)[C@H](Cc1ccc(OCc2cccc(C(=O)O)c2)cc1)NC(=O)[C@H]1CC[C@H](CN)CC1` land in?
stdout: bin 1

stdin: Lab note: which band did `CCCCCCCCNC(=O)[C@H](Cc1ccc(OCc2ccccc2)cc1)NC(=O)[C@H]1CC[C@H](CN)CC1` land in?
stdout: bin 0

stdin: Lab note: which band did `CCCCCCCCNC(=O)[C@H](Cc1ccc(OCc2cccc(N)c2)cc1)NC(=O)[C@H]1CC[C@H](CN)CC1` land in?
stdout: bin 2

stdin: Lab note: which band did `CCCCCCCCNC(=O)[C@H](Cc1ccc(OCc2ccccc2C(=O)OC)cc1)NC(=O)[C@H]1CC[C@H](CN)CC1` land in?
stdout: bin 2

stdin: Lab note: which band did `CCCCCCCCNC(=O)[C@H](Cc1ccc(OC(C)(C)C)cc1)NC(=O)[C@H]1CC[C@H](CN)CC1` land in?
stdout: bin 1

stdin: Lab note: which band did `CCCCCCCCNC(=O)[C@H](Cc1ccc(OCc2cccc([N+](=O)[O-])c2)cc1)NC(=O)[C@H]1CC[C@H](CN)CC1` land in?
stdout: bin 1
